meta.source: ChEMBL document CHEMBL5030544

A collection of compounds and their measured zone of inhibition at 15000 µg/mL
Test system: Pseudomonas aeruginosa
Experiment: Antibacterial activity against Pseudomonas aeruginosa ATCC 27853 assessed as zone of inhibition at 15 mg/ml
Type: functional
Conditions: read-out: IZ
The figure you give is taken to be in mm; do not add the unit.

CN[C@@H]1[C@H](O[C@H]2[C@H](O[C@H]3[C@H](O)[C@@H](O)[C@H](N=C(N)N)[C@@H](O)[C@@H]3N=C(N)N)O[C@@H](C)[C@]2(O)C=O)O[C@@H](CO)[C@H](O)[C@H]1O [STREPTOMYCIN]
15
N.O=NN(O)c1ccc(Cl)cc1
13
N.O=NN(O)c1ccc(CCl)cc1
15

*Q* Given the compound O=C(O)c1cn(C2CC2)c2cc(N3CCNCC3)c(F)cc2c1=O [CIPROFLOXACIN] , write its reported zone of inhibition at 15000 µg/mL.
*A* 25

###

Tested on: Bacillus subtilis
Assay: Antibacterial activity against Bacillus subtilis ATCC 23857 assessed as zone of inhibition at 5 mg/ml
Type: functional
Details: read-out: IZ
Item-by-item account of zone of inhibition at 5000 µg/mL
Please reply with the bare figure in mm and do not write the unit itself.

Examples from the recorded data:
N.O=NN(O)c1ccccc1
10
N.O=NN(O)c1ccc(CCl)cc1
10

*Q* Determine its reported zone of inhibition at 5000 µg/mL: N.O=NN(O)c1ccc(Cl)cc1
*A* 14

*Q* Identify the reported zone of inhibition at 5000 µg/mL for the following entry. O=C(O)c1cn(C2CC2)c2cc(N3CCNCC3)c(F)cc2c1=O
*A* 12
